- System: MT4
- assay.details: Antiproliferative activity against human MT4 cells assessed as reduction of growth by MTT assay
- Assay type: functional, cell-based
pIC50: −log10 of the molar value.
I would appreciate it if you labelled entries 1 when pIC50 is 5 or higher, otherwise 0.

Exam item: decide whether the reported pIC50 for COc1cc(C(=O)N2CCN(C(=O)c3cc(OC)c(OC)c(OC)c3)C2=S)cc(OC)c1OC is at least 5.
Marked response: 1

Exam item: decide whether the reported pIC50 for O=C(c1ccc(Cl)c(Cl)c1)N1CCN(C(=O)c2ccc(Cl)c(Cl)c2)C1=S is at least 5.
Marked response: 1

Exam item: decide whether the reported pIC50 for CC(C)(C)C(=O)N1CCN(C=O)C1=S is at least 5.
Marked response: 0

Exam item: decide whether the reported pIC50 for CC(=O)N1CCN(C(C)=O)C1=S is at least 5.
Marked response: 0

Exam item: decide whether the reported pIC50 for CCOC(=O)/C(=C/N1CCN(C(=O)c2ccco2)C1=S)C(=O)c1ccccc1 is at least 5.
Marked response: 1

Exam item: decide whether the reported pIC50 for CC(C)(C)c1ccc(C(=O)N2CCN(C(=O)c3ccc(C(C)(C)C)cc3)C2=S)cc1 is at least 5.
Marked response: 0

Exam item: decide whether the reported pIC50 for O=C(c1cc(Cl)cc(Cl)c1)N1CCCN(C(=O)c2cc(Cl)cc(Cl)c2)C1=S is at least 5.
Marked response: 0

Exam item: decide whether the reported pIC50 for COc1cc(C(=O)N2CCCN(C(=O)c3cc(OC)c(OC)c(OC)c3)C2=S)cc(OC)c1OC is at least 5.
Marked response: 0

Exam item: decide whether the reported pIC50 for Cc1ccc(C(=O)N2CCN(C=O)C2=S)cc1 is at least 5.
Marked response: 0

Exam item: decide whether the reported pIC50 for O=C(c1ccco1)N1CCCN(C(=O)c2ccco2)C1=S is at least 5.
Marked response: 0

Exam item: decide whether the reported pIC50 for Cc1ccc(C(=O)N2CCN(C(=O)c3ccc(C)cc3)C2=S)cc1 is at least 5.
Marked response: 0

Exam item: decide whether the reported pIC50 for Cc1ccccc1C(=O)N1CCN(C(=O)c2ccccc2C)C1=S is at least 5.
Marked response: 0

Exam item: decide whether the reported pIC50 for CC(=O)/C(=C/N1CCN(C(=O)c2ccco2)C1=O)C(=O)c1ccccc1 is at least 5.
Marked response: 0

Exam item: decide whether the reported pIC50 for COC(=O)/C(=C\N1CCN(C(=O)c2ccco2)C1=S)C(C)=O is at least 5.
Marked response: 1

Exam item: decide whether the reported pIC50 for O=C(c1ccc(Cl)cc1)N1CCCN(C(=O)c2ccc(Cl)cc2)C1=S is at least 5.
Marked response: 0

Exam item: decide whether the reported pIC50 for O=C(c1ccc(Cl)cc1Cl)N1CCCN(C(=O)c2ccc(Cl)cc2Cl)C1=S is at least 5.
Marked response: 0

Exam item: decide whether the reported pIC50 for O=C(c1cccc([N+](=O)[O-])c1)N1CCN(C(=O)c2cccc([N+](=O)[O-])c2)C1=S is at least 5.
Marked response: 0

Exam item: decide whether the reported pIC50 for N#C/C(=C\N1CCN(C(=O)c2ccco2)C1=S)C(=O)Nc1ccc(Cl)cc1 is at least 5.
Marked response: 1

Exam item: decide whether the reported pIC50 for Cc1ccc(C(=O)N2CCCN(C(=O)c3ccc(C)cc3)C2=S)cc1 is at least 5.
Marked response: 0

Exam item: decide whether the reported pIC50 for N#C/C(=C\N1CCN(C(=O)c2ccco2)C1=S)C(N)=O is at least 5.
Marked response: 1

Exam item: decide whether the reported pIC50 for O=C(c1ccc(Cl)c(Cl)c1)N1CCCN(C(=O)c2ccc(Cl)c(Cl)c2)C1=S is at least 5.
Marked response: 0

Exam item: decide whether the reported pIC50 for COC(=O)/C(C#N)=C/N1CCN(C(=O)c2ccco2)C1=S is at least 5.
Marked response: 1

Exam item: decide whether the reported pIC50 for O=C(C(=CN1CCN(C(=O)c2ccco2)C1=S)C(=O)c1ccccc1)c1ccccc1 is at least 5.
Marked response: 1

Exam item: decide whether the reported pIC50 for N#C/C(=C\N1CCN(C(=O)c2ccco2)C1=S)C(=O)c1ccccc1 is at least 5.
Marked response: 1

Exam item: decide whether the reported pIC50 for CCOC(=O)/C(=C/N1CCN(C(=O)c2ccco2)C1=O)C(=O)c1ccccc1 is at least 5.
Marked response: 0

Exam item: decide whether the reported pIC50 for CC(C)(C)C(=O)/C(C#N)=C/N1CCN(C(=O)c2ccco2)C1=S is at least 5.
Marked response: 0

Exam item: decide whether the reported pIC50 for O=C(c1ccccc1Cl)N1CCCN(C(=O)c2ccccc2Cl)C1=S is at least 5.
Marked response: 0

Exam item: decide whether the reported pIC50 for O=CN1CCN(C(=O)/C=C/c2ccccc2)C1=S is at least 5.
Marked response: 0

Exam item: decide whether the reported pIC50 for O=C(c1cccs1)N1CCCN(C(=O)c2cccs2)C1=S is at least 5.
Marked response: 0

Exam item: decide whether the reported pIC50 for CC(=O)/C(=C/N1CCN(C(=O)c2ccco2)C1=S)C(=O)c1ccccc1 is at least 5.
Marked response: 1

Exam item: decide whether the reported pIC50 for O=C(c1cccc(Cl)c1)N1CCN(C(=O)c2cccc(Cl)c2)C1=S is at least 5.
Marked response: 0

----------
- System: SF-268
- assay.details: Growth inhibition of human SF268 cells after 48 hrs by sulforhodamine B assay
- Assay type: functional
- run.conditions: SF-268, 48 h
property: GI50
In your response, put the unit directly after the numeric value.

Exam item: Tell me the measured GI50 of O=C(c1cccs1)N1CCN(C(=O)c2cccs2)C1=S , please.
Marked response: 8.2 µM

Exam item: Tell me the measured GI50 of CC(=O)C(=CN1CCN(C(=O)c2ccco2)C1=S)C(C)=O , please.
Marked response: 2.6 µM

Exam item: Tell me the measured GI50 of O=C(c1ccc(Cl)c(Cl)c1)N1CCN(C(=O)c2ccc(Cl)c(Cl)c2)C1=S , please.
Marked response: 16.8 µM

Exam item: Tell me the measured GI50 of COC(=O)/C(C#N)=C/N1CCN(C(=O)c2ccco2)C1=S , please.
Marked response: 4.8 µM

Exam item: Tell me the measured GI50 of COC(=O)/C(=C\N1CCN(C(=O)c2ccco2)C1=S)C(C)=O , please.
Marked response: 5.8 µM

Exam item: Tell me the measured GI50 of O=CN1CCN(C(=O)c2ccco2)C1=S , please.
Marked response: 3.9 µM

----------
- Tested on: A498
- assay.details: Growth inhibition of human A498 cells after 48 hrs by sulforhodamine B assay
- Assay type: functional
- run.conditions: A498, 48 h
property: GI50 (µM)
# value in µM; strip the unit string

Exam item: Param readout = GI50; param system = A498; param query = O=C(c1ccc(Cl)cc1Cl)N1CCN(C(=O)c2ccc(Cl)cc2Cl)C1=S ; response: value
Marked response: 16.1

Exam item: Param readout = GI50; param system = A498; param query = O=C(c1cc(Cl)cc(Cl)c1)N1CCN(C(=O)c2cc(Cl)cc(Cl)c2)C1=S ; response: value
Marked response: 15.5

Exam item: Param readout = GI50; param system = A498; param query = COc1cc(C(=O)N2CCN(C=O)C2=S)cc(OC)c1OC ; response: value
Marked response: 20.5

Exam item: Param readout = GI50; param system = A498; param query = COc1cc(C(=O)N2CCN(C(=O)c3cc(OC)c(OC)c(OC)c3)C2=S)cc(OC)c1OC ; response: value
Marked response: 17.7

Exam item: Param readout = GI50; param system = A498; param query = O=C(c1cccs1)N1CCN(C(=O)c2cccs2)C1=S ; response: value
Marked response: 15.1

Exam item: Param readout = GI50; param system = A498; param query = O=C(c1ccc(Cl)c(Cl)c1)N1CCN(C(=O)c2ccc(Cl)c(Cl)c2)C1=S ; response: value
Marked response: 20.2

Exam item: Param readout = GI50; param system = A498; param query = O=CN1CCN(C(=O)c2ccco2)C1=S ; response: value
Marked response: 16.5

Exam item: Param readout = GI50; param system = A498; param query = O=C(c1ccco1)N1CCN(C(=O)c2ccco2)C1=S ; response: value
Marked response: 16.6

----------
Please provide measured IC50 for the entries that follow.
- Tested on: MT4
- assay.details: Antiproliferative activity against human MT4 cells assessed as reduction of growth by MTT assay
- Assay type: functional, cell-based
# value in µM; strip the unit string

Exam item: Param readout = IC50; param system = MT4; param query = O=C(c1ccc(Cl)cc1Cl)N1CCN(C(=O)c2ccc(Cl)cc2Cl)C1=S ; response: value
Marked response: 39

Exam item: Param readout = IC50; param system = MT4; param query = CC(=O)C(=CN1CCN(C(=O)c2ccco2)C1=S)C(C)=O ; response: value
Marked response: 4

Exam item: Param readout = IC50; param system = MT4; param query = O=C(c1ccccc1Cl)N1CCN(C(=O)c2ccccc2Cl)C1=S ; response: value
Marked response: 54

Exam item: Param readout = IC50; param system = MT4; param query = O=C(c1ccc(Cl)cc1)N1CCN(C(=O)c2ccc(Cl)cc2)C1=S ; response: value
Marked response: 9.9

Exam item: Param readout = IC50; param system = MT4; param query = O=CN1CCN(C(=O)c2ccccc2)C1=S ; response: value
Marked response: 12

Exam item: Param readout = IC50; param system = MT4; param query = N#CC(C#N)=CN1CCN(C(=O)c2ccco2)C1=S ; response: value
Marked response: 4.4

Exam item: Param readout = IC50; param system = MT4; param query = O=CN1CCN(C(=O)c2ccco2)C1=S ; response: value
Marked response: 9

Exam item: Param readout = IC50; param system = MT4; param query = O=C(c1ccccc1)N1CCN(C(=O)c2ccccc2)C1=S ; response: value
Marked response: 94
